Target: GSPT1 (Homo sapiens, UniProt P15170+Q96SW2)
Sequence (P15170 whole entry, the tested form may be a part): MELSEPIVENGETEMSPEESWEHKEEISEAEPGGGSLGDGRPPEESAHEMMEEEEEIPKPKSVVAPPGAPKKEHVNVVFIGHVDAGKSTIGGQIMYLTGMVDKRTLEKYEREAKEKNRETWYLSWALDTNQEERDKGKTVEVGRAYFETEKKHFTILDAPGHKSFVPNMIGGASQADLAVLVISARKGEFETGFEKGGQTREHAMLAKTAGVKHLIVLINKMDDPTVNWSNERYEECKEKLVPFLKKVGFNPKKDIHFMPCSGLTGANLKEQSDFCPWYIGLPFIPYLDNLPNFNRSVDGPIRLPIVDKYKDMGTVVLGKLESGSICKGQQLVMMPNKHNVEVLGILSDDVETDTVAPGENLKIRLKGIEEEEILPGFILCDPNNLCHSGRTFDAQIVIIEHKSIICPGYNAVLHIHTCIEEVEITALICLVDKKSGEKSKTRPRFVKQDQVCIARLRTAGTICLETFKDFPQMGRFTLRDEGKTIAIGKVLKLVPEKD
Sequence (Q96SW2 whole entry, the tested form may be a part): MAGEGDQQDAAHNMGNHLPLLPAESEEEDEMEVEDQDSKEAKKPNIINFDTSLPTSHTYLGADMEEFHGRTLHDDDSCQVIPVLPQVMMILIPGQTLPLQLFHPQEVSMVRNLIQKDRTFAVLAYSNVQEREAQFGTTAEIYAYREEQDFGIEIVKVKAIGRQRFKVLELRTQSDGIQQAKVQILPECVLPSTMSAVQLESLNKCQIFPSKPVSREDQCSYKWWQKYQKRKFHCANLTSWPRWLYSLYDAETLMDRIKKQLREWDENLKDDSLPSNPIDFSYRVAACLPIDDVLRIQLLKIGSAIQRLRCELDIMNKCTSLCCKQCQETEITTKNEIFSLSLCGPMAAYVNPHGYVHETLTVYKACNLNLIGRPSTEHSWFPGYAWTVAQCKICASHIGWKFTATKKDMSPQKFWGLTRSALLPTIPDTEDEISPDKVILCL
Sequence (Q16531 whole entry partner, the tested form may be a part): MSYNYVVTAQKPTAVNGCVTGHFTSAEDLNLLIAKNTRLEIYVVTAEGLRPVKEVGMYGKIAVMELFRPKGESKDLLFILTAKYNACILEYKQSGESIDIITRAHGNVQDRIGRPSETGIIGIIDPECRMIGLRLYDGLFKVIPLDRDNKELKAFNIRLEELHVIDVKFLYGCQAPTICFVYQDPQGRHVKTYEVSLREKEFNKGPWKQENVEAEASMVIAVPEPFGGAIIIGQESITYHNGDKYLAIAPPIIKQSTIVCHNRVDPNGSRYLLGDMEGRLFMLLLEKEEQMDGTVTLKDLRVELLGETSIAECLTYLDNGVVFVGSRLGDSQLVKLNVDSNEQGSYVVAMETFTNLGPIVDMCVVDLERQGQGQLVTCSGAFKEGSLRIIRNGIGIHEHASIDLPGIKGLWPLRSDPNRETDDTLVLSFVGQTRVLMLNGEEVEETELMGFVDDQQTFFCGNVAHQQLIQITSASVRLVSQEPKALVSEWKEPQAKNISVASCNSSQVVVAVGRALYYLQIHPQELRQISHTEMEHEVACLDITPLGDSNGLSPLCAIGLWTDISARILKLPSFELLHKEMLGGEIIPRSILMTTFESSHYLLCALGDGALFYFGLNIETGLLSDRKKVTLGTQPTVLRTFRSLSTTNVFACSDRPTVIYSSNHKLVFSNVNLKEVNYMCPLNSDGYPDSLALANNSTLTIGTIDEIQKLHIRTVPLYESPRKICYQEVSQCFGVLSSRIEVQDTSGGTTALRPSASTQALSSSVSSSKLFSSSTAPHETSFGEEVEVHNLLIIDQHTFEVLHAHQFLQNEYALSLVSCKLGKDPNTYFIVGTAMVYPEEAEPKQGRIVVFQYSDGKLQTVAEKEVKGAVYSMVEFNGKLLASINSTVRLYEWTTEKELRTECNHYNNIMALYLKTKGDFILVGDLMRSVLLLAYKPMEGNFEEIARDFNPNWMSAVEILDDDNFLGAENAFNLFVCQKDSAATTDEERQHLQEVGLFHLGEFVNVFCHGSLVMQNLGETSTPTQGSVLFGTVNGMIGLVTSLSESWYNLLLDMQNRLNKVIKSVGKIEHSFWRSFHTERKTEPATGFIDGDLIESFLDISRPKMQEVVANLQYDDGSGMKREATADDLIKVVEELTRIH
Assay: Cellular degradation assay, eGFP-GSPT1 fusion with mCherry reporter in Flp-In 293 cells
Assay type: cell-based
Parameters: expressed in transfected cells; host or cells: Flp-In 293
Conditions: compound concentration 2.00E−05; 5 h incubation; n=1
Listed next: entries and their corresponding GSPT1 GFP/RFP Relative Abundance.
Answer using only a numeral; do not append any unit.

compound	GSPT1 GFP/RFP Relative Abundance
O=C(Cc1ccc(Cl)c(Cl)c1)NCc1cccc(NC2=CC(=O)N(C3CCC(=O)NC3=O)C2=O)c1 (centres unmarked)	0.190
CCOC(=O)c1cccc(NC2=CC(=O)N(C3CCC(=O)NC3=O)C2=O)c1 (centres unmarked)	1.100
O=C1CCC(N2C(=O)C=C(Nc3ccc(-n4ccnc4)cc3)C2=O)C(=O)N1 (centres unmarked)	0.790

Item Cc1ccc(NC(=O)NCc2cccc(NC3=CC(=O)N(C4CCC(=O)NC4=O)C3=O)c2)cc1C (centres unmarked) has what recorded GSPT1 GFP/RFP Relative Abundance?
0.421

Item Cc1cc(NC2=CC(=O)N(C3CCC(=O)NC3=O)C2=O)ccc1Cl (centres unmarked) has what recorded GSPT1 GFP/RFP Relative Abundance?
0.922

Item CN(C)C(=O)Cc1cccc(NC2=CC(=O)N(C3CCC(=O)NC3=O)C2=O)c1 (centres unmarked) has what recorded GSPT1 GFP/RFP Relative Abundance?
0.975

Item Cc1ccc(NC(=O)NCc2ccc3c(c2)CN(C2CCC(=O)NC2=O)C3=O)cc1Cl (centres unmarked) [CC-885, reference compound] has what recorded GSPT1 GFP/RFP Relative Abundance?
0.240

Item Cc1ccc(NC(=O)OCc2cccc(NC3=CC(=O)N(C4CCC(=O)NC4=O)C3=O)c2)cc1Cl (centres unmarked) has what recorded GSPT1 GFP/RFP Relative Abundance?
1.591

====

Listed next: entries and their corresponding TR-FRET-IKZF2 (Normalized to CC-885).
Target: CRBN and Helios (IKZF2) (Homo sapiens, UniProt Q96SW2+Q9UKS7)
Construct: His (N); Strep (N)
Sequence (Q96SW2 whole entry): as the sequence (Q96SW2 whole entry, the tested form may be a part) above
Sequence (Q9UKS7 whole entry): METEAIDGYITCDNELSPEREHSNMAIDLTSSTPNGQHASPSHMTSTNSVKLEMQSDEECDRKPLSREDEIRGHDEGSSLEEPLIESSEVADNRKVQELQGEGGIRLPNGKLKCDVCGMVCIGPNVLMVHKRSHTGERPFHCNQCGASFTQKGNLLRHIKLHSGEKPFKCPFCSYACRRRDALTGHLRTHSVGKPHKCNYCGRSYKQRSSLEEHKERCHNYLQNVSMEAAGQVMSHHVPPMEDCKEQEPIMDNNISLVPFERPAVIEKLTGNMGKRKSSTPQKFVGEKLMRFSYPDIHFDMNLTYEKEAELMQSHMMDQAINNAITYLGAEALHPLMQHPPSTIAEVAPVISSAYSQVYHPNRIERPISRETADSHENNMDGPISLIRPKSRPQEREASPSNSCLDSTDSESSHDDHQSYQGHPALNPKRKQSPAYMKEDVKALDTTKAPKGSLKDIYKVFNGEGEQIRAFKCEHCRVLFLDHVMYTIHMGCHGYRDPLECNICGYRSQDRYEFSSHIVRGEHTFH
Experiment: TR-FRET dimerization assay (CRBN-IKZF2 ternary complex formation)
Assay type: binding
Conditions: compound concentration 6.6667E−07 (667 nM); n=1
Answer using only a numeral; do not append any unit.

Completed entries (count: 10):
compound	TR-FRET-IKZF2 (Normalized to CC-885)
Cc1ccc(NC2=CC(=O)N(C3CCC(=O)NC3=O)C2=O)cc1Cl (stereo not shown) [Compound 3]	0.253
O=C1CCC(N2C(=O)C=C(Nc3cccc(CNC(=O)Nc4ccccc4)c3)C2=O)C(=O)N1 (stereo not shown) [Compound 119]	0.629
Cc1cc(CNC(=O)NCc2cccc(NC3=CC(=O)N(C4CCC(=O)NC4=O)C3=O)c2)ccc1Cl (stereo not shown) [Compound 82]	0.838
Cc1ccc(CNC(=O)c2cccc(NC3=CC(=O)N(C4CCC(=O)NC4=O)C3=O)c2)cc1Cl (stereo not shown) [Compound 122]	0.469
Cc1ccc(NC(=O)NCCNC2=CC(=O)N(C3CCC(=O)NC3=O)C2=O)cc1Cl (stereo not shown) [Compound 41]	0.104
CN(C)C(=O)Cc1ccc(NC2=CC(=O)N(C3CCC(=O)NC3=O)C2=O)cc1 (stereo not shown) [Compound 36]	0.115
Cc1ccc(NC(=O)Oc2cccc(NC3=CC(=O)N(C4CCC(=O)NC4=O)C3=O)c2)cc1Cl (stereo not shown) [Compound 51]	0.017
Cc1ccc(NC(=O)Nc2ccc(NC3=CC(=O)N(C4CCC(=O)NC4=O)C3=O)cc2)cc1Cl (stereo not shown) [Compound 42]	0.209
O=C(O)CCCCNC1=CC(=O)N(C2CCC(=O)NC2=O)C1=O (stereo not shown) [Compound 22]	0.018
Cc1ccc(NC(=O)NCc2cccc(OC3=CC(=O)N(C4CCC(=O)NC4=O)C3=O)c2)cc1Cl (stereo not shown) [Compound 64]	0.021

Item Cc1ccc(NC(=O)c2cccc(NC3=CC(=O)N(C4CCC(=O)NC4=O)C3=O)c2)cc1Cl (stereo not shown) [Compound 49] has what recorded TR-FRET-IKZF2 (Normalized to CC-885)?
0.472

Item Cc1ccc(NC(=O)Nc2cccc3c(NC4=CC(=O)N(C5CCC(=O)NC5=O)C4=O)cccc23)cc1Cl (stereo not shown) [Compound 124] has what recorded TR-FRET-IKZF2 (Normalized to CC-885)?
0.077

Item O=C1CCC(N2C(=O)C=C(Nc3cccc(CNC(=O)NCc4ccccc4)c3)C2=O)C(=O)N1 (stereo not shown) [Compound 81] has what recorded TR-FRET-IKZF2 (Normalized to CC-885)?
0.519

Item Cc1ccc(CNC(=O)Cc2cccc(NC3=CC(=O)N(C4CCC(=O)NC4=O)C3=O)c2)cc1Cl (stereo not shown) [Compound 123] has what recorded TR-FRET-IKZF2 (Normalized to CC-885)?
0.960

Item O=C1CCC(N2C(=O)C=C(Nc3ccc4cn[nH]c4c3)C2=O)C(=O)N1 (stereo not shown) [Compound 32] has what recorded TR-FRET-IKZF2 (Normalized to CC-885)?
0.210

Item Cc1ccc(NC(=O)NCc2cc(NC3=CC(=O)N(C4CCC(=O)NC4=O)C3=O)ccc2OC(=O)N(C)C)cc1Cl (stereo not shown) [Compound 95] has what recorded TR-FRET-IKZF2 (Normalized to CC-885)?
0.094

====

System: IKZF2
Assay: Cellular degradation assay, eGFP-IKZF2Δ fusion with mCherry reporter in Flp-In 293 cells
Format: cell-based
Details: half degradation at 5 h (DC50,5 h); triplicate, 11 point dose response
Listed next: entries and their corresponding DC50.
Quick reminder: number only, in nM, skip the unit.

Completed entries (count: 3):
compound	experimental-value
Cc1ccc(NC(=O)CNc2cccc(NC3=CC(=O)N(C4CCC(=O)NC4=O)C3=O)c2)cc1Cl (stereo not shown)	2.2
Cc1ccc(NC(=O)c2cccc(NC3=CC(=O)N(C4CCC(=O)NC4=O)C3=O)c2)cc1Cl (stereo not shown)	7.2
Cc1ccc(NC(=O)COc2cccc(NC3=CC(=O)N(C4CCC(=O)NC4=O)C3=O)c2)cc1Cl (stereo not shown)	24

Item CC(C)(NC(=O)Cc1cccc(C(F)(F)F)c1)c1cccc(NC2=CC(=O)N(C3CCC(=O)NC3=O)C2=O)c1 (stereo not shown) has what recorded DC50?
17

====

Test system: IKZF2
Assay: Cellular degradation assay, eGFP-IKZF2Δ fusion with mCherry reporter in Flp-In 293 cells
Type: cell-based
Settings: half degradation at 5 h (DC50,5 h); triplicate, 11 point dose response
Protocol: IKZF1Δ, IKZF2Δ, GSPT1 and SALL4 ZnF1-2 were subcloned into mammalian pcDNA5/FRT Vector (Ampicillin and Hygromycin B resistant) modified to contain MCS-eGFP-P2A-mCherry. […] Following 2-3 passage cycle, FACS (FACSAria™ II, BD) was used to enrich for cells expressing eGFP and mCherry. […] The resulting images were analyzed using CellProfiler™. […] The fraction of GFP-positive cells/mCherry-positive cells in each well was then calculated, and the green and red images were rescaled for visualization. […]
Listed next: entries and their corresponding DC50.
Quick reminder: number only, in µM, skip the unit.

Completed entries (count: 5):
compound	unit-of-measure	experimental-value
O=C1CCC(N2C(=O)C=C(Nc3cccc(CCC(=O)Nc4cccc(C(F)(F)F)c4)c3)C2=O)C(=O)N1 (stereo not shown)	µM	0.013
Cc1ccc(NC(=O)N[C@@H](C)c2cccc(NC3=CC(=O)N(C4CCC(=O)NC4=O)C3=O)c2)cc1Cl (stereo partly shown)	µM	0.0019
CC(NC(=O)Cc1cccc(C(F)(F)F)c1)c1cccc(NC2=CC(=O)N(C3CCC(=O)NC3=O)C2=O)c1 (stereo not shown)	µM	0.016
Cc1ccc(NC(=O)NC(C)(C)c2cccc(NC3=CC(=O)N(C4CCC(=O)NC4=O)C3=O)c2)cc1Cl (stereo not shown)	µM	0.0036
Cc1ccc(NC(=O)NCc2ccc3c(c2)CN(C2CCC(=O)NC2=O)C3=O)cc1Cl (stereo not shown) [CC-885, reference compound]	µM	0.0807

Item Cc1ccc(NC(=O)NCCc2cccc(NC3=CC(=O)N(C4CCC(=O)NC4=O)C3=O)c2)cc1Cl (stereo not shown) has what recorded DC50?
0.029

Item CCC(NC(=O)Nc1ccc(C)c(Cl)c1)c1cccc(NC2=CC(=O)N(C3CCC(=O)NC3=O)C2=O)c1 (stereo not shown) has what recorded DC50?
0.0019

====

Listed next: entries and their corresponding SALL4 ZNF1-2 GFP/RFP Relative Abundance.
Target: SALL4 ZNF1-2 (Homo sapiens, UniProt Q96SW2+Q9UJQ4)
Construct: IKZF1Δ, IKZF2Δ, GSPT1 and SALL4 ZnF1-2 were subcloned; expressed in transfected cells; host or cells: Flp-In 293
Sequence (Q9UJQ4 378-438 limits assumed): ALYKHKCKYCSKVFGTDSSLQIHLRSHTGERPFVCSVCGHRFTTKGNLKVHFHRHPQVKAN
Sequence (Q96SW2 whole entry): as the sequence (Q96SW2 whole entry, the tested form may be a part) above
Sequence (Q16531 whole entry partner): as the sequence (Q16531 whole entry partner, the tested form may be a part) above
Assay: Cellular degradation assay, eGFP-SALL4 ZnF1-2 fusion with mCherry reporter in Flp-In 293 cells
Format: cell-based
Details: compound concentration 2.00E−07; 5 h incubation; n=1
Protocol: IKZF1Δ, IKZF2Δ, GSPT1 and SALL4 ZnF1-2 were subcloned into mammalian pcDNA5/FRT Vector (Ampicillin and Hygromycin B resistant) modified to contain MCS-eGFP-P2A-mCherry. Stable cell lines expressing eGFP-protein fusion and mCherry reporter were generated using Flp-In™ 293 system. […] The resulting images were analyzed using CellProfiler™. […] The fraction of GFP-positive cells/mCherry-positive cells in each well was then calculated, and the green and red images were rescaled for visualization.
Answer using only a numeral; do not append any unit.

molecule	SALL4 ZNF1-2 GFP/RFP Relative Abundance
O=C1CCC(N2C(=O)C=C(Nc3ccc4cn[nH]c4c3)C2=O)C(=O)N1 (stereo not drawn)	0.901
COC(=O)CNC1=CC(=O)N(C2CCC(=O)NC2=O)C1=O (stereo not drawn)	1.017

Item Cc1cc(NC2=CC(=O)N(C3CCC(=O)NC3=O)C2=O)ccc1Cl (stereo not drawn) has what recorded SALL4 ZNF1-2 GFP/RFP Relative Abundance?
0.903

Item CN(C)C(=O)c1cccc(NC2=CC(=O)N(C3CCC(=O)NC3=O)C2=O)c1 (stereo not drawn) has what recorded SALL4 ZNF1-2 GFP/RFP Relative Abundance?
0.860

Item CN(C)C(=O)Cc1ccc(NC2=CC(=O)N(C3CCC(=O)NC3=O)C2=O)cc1 (stereo not drawn) has what recorded SALL4 ZNF1-2 GFP/RFP Relative Abundance?
0.974

Item Cc1ccc(NC2=CC(=O)N(C3CCC(=O)NC3=O)C2=O)cc1C#N (stereo not drawn) has what recorded SALL4 ZNF1-2 GFP/RFP Relative Abundance?
0.992

Item O=C1CCC(N2C(=O)C=C(Nc3ccc(-n4ccnc4)cc3)C2=O)C(=O)N1 (stereo not drawn) has what recorded SALL4 ZNF1-2 GFP/RFP Relative Abundance?
0.908

Item O=C1CCC(N2C(=O)C=C(Nc3ccc(-c4ccccc4)cc3)C2=O)C(=O)N1 (stereo not drawn) has what recorded SALL4 ZNF1-2 GFP/RFP Relative Abundance?
0.742

Item Cc1ccc(NC(=O)NCCCNC2=CC(=O)N(C3CCC(=O)NC3=O)C2=O)cc1Cl (stereo not drawn) has what recorded SALL4 ZNF1-2 GFP/RFP Relative Abundance?
1.010
